Target: human kinase Mps-1 (Homo sapiens)
Construct: N-terminally GST-tagged human full length recombinant Mps-1 kinase; GST (N)
Experiment: Mps-1 kinase assay (TR-FRET)
Details: GST-tagged human full length recombinant Mps-1; 10 μM ATP; 1 μM peptide substrate; 60 min at 22° C.
Kindly apply the following: Yes if IC50 is less than 6 nM, No in every other case.

compound: Cc1cc(-c2cnc3c(NCCC(F)(F)F)nc(-c4c(C)noc4C)cn23)ccc1C(=O)NC1CC1 [Example 1-74]
label_class: Yes
--
compound: Cc1cc(-c2cnc3c(NCCC(F)(F)F)nc(CN)cn23)ccc1C(=O)NC1CC1 [Example 10-1]
label_class: No
--
compound: Cc1cc(-c2cnc3c(NCCC(F)(F)F)nc(-c4cc[nH]n4)cn23)ccc1C(=O)NC1CC1 [Example 1-77]
label_class: Yes
--
compound: Cc1cc(-c2cnc3c(NCC4CC4C)nc(C4=CCOCC4)cn23)ccc1C(=O)NC1CC1 (stereo not drawn) [Example 6-16]
label_class: No
--
compound: O=C(NC1CC1)c1ccc(-c2cnc3c(NCc4ccco4)nc(-c4ccncc4)cn23)cc1 [Example 3-20]
label_class: Yes
--
compound: Cc1cc(-c2cnc3c(NCCC(F)(F)F)nc(C4=CCOCC4)cn23)ccc1C(=O)NC1CC1 [Example 6-2]
label_class: No

====

This section presents compounds with their documented IC50 values.
Target: human kinase Mps-1 (Homo sapiens, UniProt P33981)
Construct: N-terminally GST-tagged human full length recombinant Mps-1 kinase; GST (N)
Sequence (P33981 1-857): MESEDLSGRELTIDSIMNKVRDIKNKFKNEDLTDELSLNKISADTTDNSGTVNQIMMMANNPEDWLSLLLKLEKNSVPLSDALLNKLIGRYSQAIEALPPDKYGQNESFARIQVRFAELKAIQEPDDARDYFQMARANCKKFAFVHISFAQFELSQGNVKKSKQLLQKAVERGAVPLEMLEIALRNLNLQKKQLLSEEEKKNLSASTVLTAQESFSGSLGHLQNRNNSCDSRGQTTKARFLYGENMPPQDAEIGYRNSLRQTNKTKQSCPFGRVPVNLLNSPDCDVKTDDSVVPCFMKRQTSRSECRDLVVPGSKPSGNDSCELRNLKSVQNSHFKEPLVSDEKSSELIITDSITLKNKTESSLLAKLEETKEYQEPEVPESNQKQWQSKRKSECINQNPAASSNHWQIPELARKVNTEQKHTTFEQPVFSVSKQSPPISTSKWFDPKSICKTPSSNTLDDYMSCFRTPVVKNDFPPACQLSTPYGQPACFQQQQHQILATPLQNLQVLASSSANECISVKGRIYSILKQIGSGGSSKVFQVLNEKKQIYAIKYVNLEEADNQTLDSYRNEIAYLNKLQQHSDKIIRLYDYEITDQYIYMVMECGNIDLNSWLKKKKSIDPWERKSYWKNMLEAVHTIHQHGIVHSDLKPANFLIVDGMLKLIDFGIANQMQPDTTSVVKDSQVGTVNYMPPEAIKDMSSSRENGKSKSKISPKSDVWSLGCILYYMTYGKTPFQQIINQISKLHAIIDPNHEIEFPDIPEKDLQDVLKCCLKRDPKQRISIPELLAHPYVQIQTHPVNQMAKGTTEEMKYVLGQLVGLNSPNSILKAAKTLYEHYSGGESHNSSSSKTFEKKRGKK
Experiment: Mps-1 kinase assay (TR-FRET)
Settings: GST-tagged human full length recombinant Mps-1; 10 μM ATP; 1 μM peptide substrate; 60 min at 22° C.
measured_parameter: IC50 (nM)

compound: NCCCCCNc1nc(-c2cccc(CC(N)=O)c2)cn2c(-c3ccc(C(=O)NC4CC4)cc3)cnc12 [Example 1-96]
subject_of_test: human kinase Mps-1 (Homo sapiens, UniProt P33981)
measured_parameter: IC50
assay_result: 5.6
//
compound: Cc1cc(-c2cnc3c(NCCC(F)(F)F)nc(-c4cncnc4)cn23)ccc1C(=O)NC1CC1 [Example 1-73]
subject_of_test: human kinase Mps-1 (Homo sapiens, UniProt P33981)
measured_parameter: IC50
assay_result: 21.4
//
compound: CC(C)CNc1nc(-c2ccn[nH]2)cn2c(-c3ccc(C(=O)NC4CC4)c(F)c3)cnc12 [Example 1-51]
subject_of_test: human kinase Mps-1 (Homo sapiens, UniProt P33981)
measured_parameter: IC50
assay_result: 8.3
//
compound: CC(C)CNc1nc(-c2ccnn2C)cn2c(-c3ccc(C(=O)NC4CC4)cc3)cnc12 [Example 1-13]
subject_of_test: human kinase Mps-1 (Homo sapiens, UniProt P33981)
measured_parameter: IC50
assay_result: 29.5
//
compound: Cc1cc(-c2cnc3c(NCCC(F)(F)F)nc(CNc4ccccc4)cn23)ccc1C(=O)NC1CC1 [Example 11-2]
subject_of_test: human kinase Mps-1 (Homo sapiens, UniProt P33981)
measured_parameter: IC50
assay_result: 1.2
//
compound: CC(C)CNc1nc(-c2ccc(CN(C)C)cc2)cn2c(-c3ccc(C(=O)NC4CC4)cc3)cnc12 [Example 1-31]
subject_of_test: human kinase Mps-1 (Homo sapiens, UniProt P33981)
measured_parameter: IC50
assay_result: 3.3
//
compound: CC(C)CNc1nc(C2=CCN(C)CC2)cn2c(-c3ccc(C(=O)NC4CC4)cc3)cnc12 [Example 1-27]
subject_of_test: human kinase Mps-1 (Homo sapiens, UniProt P33981)
measured_parameter: IC50
assay_result: 7.5

Measured values drawn from patent US20140135319A1 for this set.
